Experiment: Induction of IL2-stimulated IFNgamma production in human PBMC-derived Vgamma9Vdelta2 T cells co-cultured with compound treated human K562 cells measured after 15 mins by ELISA
Type: functional, cell-based
Details: K562, 0.25 h
observed-property: pEC50
Bear in mind: pEC50 is minus log10 of a mol/L concentration; give just that figure.

// query Item under review: COC(=O)CNP(=O)(CC/C=C(\C)COC(C)=O)Oc1ccccc1 (stereo unspecified) . Reported pEC50?
// result 5.47

// query For the compound shown here, CC(=O)OC/C(C)=C/CCP(=O)(OCOC(=O)C(C)(C)C)OCOC(=O)C(C)(C)C , give the reported pEC50.
// result 7.48

// query Consider the compound COC(=O)[C@H](C)NP(=O)(OC/C=C(\C)COC(C)=O)Oc1ccccc1 (stereo partly specified) and give its measured pEC50.
// result 4.62

// query Give the measured pEC50 of COC(=O)[C@H](C)NP(=O)(CC/C=C(\C)COC(C)=O)Oc1ccccc1 (stereo partly specified) .
// result 6.80

====

What Stabilty was measured for each of the following?
Test: Stability in pooled human plasma at pH 7.5 assessed as parent compound remaining at 100 uM after 2 hrs LC/MS analysis relative to control
Assay type: ADME, cell-free
Details: pH 7.5, 2 h
Answer shape: numeric part, then the unit.

// query Name the reported Stabilty value associated with the compound COC(=O)[C@H](C)NP(=O)(OC/C=C(\C)COC(C)=O)Oc1ccccc1 (stereo not given in full)
// result 28%

// query Returns the measured Stabilty for the input compound. Input: COP(=O)(CC/C=C(\C)COC(C)=O)Oc1ccccc1 (stereo not given)
// result 2%

// query Sample COC(=O)CNP(=O)(CC/C=C(\C)COC(C)=O)Oc1ccccc1 (stereo not given) — what was its Stabilty?
// result 2%

// query # lookup: Stabilty of COC(=O)[C@H](C)NP(=O)(CC/C=C(\C)COC(C)=O)Oc1ccccc1 (stereo not given in full)
// result 9%

// query I have this compound here, CC(=O)OC/C(C)=C/CCP(=O)(OCOC(=O)C(C)(C)C)OCOC(=O)C(C)(C)C , and I need its recorded Stabilty.
// result 24%

====

Assay: Stability in pooled human plasma at pH 7.5 assessed as parent compound remaining at 100 uM after 24 hrs LC/MS analysis relative to control
Assay type: ADME, cell-free
Details: pH 7.5, 24 h
Give Stabilty for every item shown.
Please reply with the bare figure in % and do not write the unit itself.

// query I would be grateful if you could share the reported Stabilty for COP(=O)(CC/C=C(\C)COC(C)=O)Oc1ccccc1 (stereo not given) .
// result 0

// query Any idea what its Stabilty is? The molecule is COC(=O)CNP(=O)(CC/C=C(\C)COC(C)=O)Oc1ccccc1 (stereo not given)
// result 1

// query Consider the molecule shown here: CC(=O)OC/C(C)=C/CCP(=O)(OCOC(=O)C(C)(C)C)OCOC(=O)C(C)(C)C What is its recorded Stabilty?
// result 24

// query Entry COC(=O)[C@H](C)NP(=O)(OC/C=C(\C)COC(C)=O)Oc1ccccc1 (stereo not given in full) : reported Stabilty = ?
// result 8

// query What Stabilty value was documented for this molecule, COC(=O)[C@H](C)NP(=O)(CC/C=C(\C)COC(C)=O)Oc1ccccc1 (stereo not given in full) ?
// result 0

Origin of the recorded values: ChEMBL document CHEMBL4725406
